meta.source: the supplement of paper PMC11208160

experiment: recombinant UMI read abundance after kanamycin selection (control-corrected) (log10(CPM+1)); higher = more efficient recombination; extreme values may be limits of the assay; sequences stand for … in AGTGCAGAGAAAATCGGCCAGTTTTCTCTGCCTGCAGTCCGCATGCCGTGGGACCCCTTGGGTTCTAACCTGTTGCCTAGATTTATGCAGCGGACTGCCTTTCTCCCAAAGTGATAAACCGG…AGGTTGGTTTCACT; site = the 11-nt donor
Outcome: condition met for recombinant UMI read abundance (log10) of at least 1; condition not met for anything lower.

Observe how each entry below is paired with its result.
item_sequence	label_value
ACTAGTTCATGGACCGGTTTTCCCGGTAATCCGTATTTGGT (site ACTAGTACTAC)	condition not met
CTCAATTCATGGACCGGTTTTCCCGGTAATCCGTATTTGCT (site CTCAATTCTAG)	condition met
ACATGATCATGGACCGGTTTTCCCGGTAATCCGTATTTGCA (site ACATGATCTTG)	condition met
TAGAATCCATGGACCGGTTTTCCCGGTAATCCGTATTTGCA (site TAGAATCCTTG)	condition met

Continue with the sequence presented below.
Task: Assess whether reported recombinant UMI read abundance (log10) for CGGGAGTCATGGACCGGTTTTCCCGGTAATCCGTATTTGTC (site CGGGAGTCTGA) sits at 1 or higher.
Result: condition met

====

So I've got a bunch of sequences here, and I need their recombinant UMI read abundance (log10) values.
assay: recombinant UMI read abundance after kanamycin selection (control-corrected) (log10(CPM+1)); higher = more efficient recombination; extreme values may be limits of the assay; sequences stand for … in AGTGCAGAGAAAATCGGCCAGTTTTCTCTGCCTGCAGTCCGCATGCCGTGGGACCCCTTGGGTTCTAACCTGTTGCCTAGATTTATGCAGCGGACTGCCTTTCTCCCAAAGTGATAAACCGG…AGGTTGGTTTCACT; site = the 11-nt donor

// solved cases for recombinant UMI read abundance (log10) follow
item_sequence	reported_metric	measured_value
ATTTCTACATGGACCGGTTTTCCCGGTAATCCGTATTTGTT (site ATTTCTACTAA)	recombinant UMI read abundance (log10)	0.0251
GTTAGATCATGGACCGGTTTTCCCGGTAATCCGTATTTGGC (site GTTAGATCTGC)	recombinant UMI read abundance (log10)	1.92
ATATAGGCATGGACCGGTTTTCCCGGTAATCCGTATTTGGC (site ATTTAGGCTGC)	recombinant UMI read abundance (log10)	0.00901
TAGCAGGCATGGACCGGTTTTCCCGGTAATCCGTATTTGCT (site TAGCAGGCTAG)	recombinant UMI read abundance (log10)	1.19

The recorded recombinant UMI read abundance (log10) for entry AGTAACGCATGGACCGGTTTTCCCGGTAATCCGTATTTGCA (site AGTAACGCTTG) equals 2.29

====

test: recombinant UMI read abundance after kanamycin selection (control-corrected) (log10(CPM+1)); higher = more efficient recombination; extreme values may be limits of the assay; sequences stand for … in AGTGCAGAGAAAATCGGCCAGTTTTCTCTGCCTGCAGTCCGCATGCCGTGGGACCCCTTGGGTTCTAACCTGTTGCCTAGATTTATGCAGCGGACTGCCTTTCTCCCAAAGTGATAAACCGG…AGGTTGGTTTCACT; site = the 11-nt donor
reported_metric: recombinant UMI read abundance (log10)
Give bare numbers.

item_sequence	recombinant UMI read abundance (log10)
AATCGTCCATGGACCGGTTTTCCCGGTAATCCGTATTTGAT (site AAACGTCCTAT)	0.00356
ACAGTATCATGGACCGGTTTTCCCGGTAATCCGTATTTGCT (site ACAGTATCTAG)	2.8
CGTTCATCATGGACCGGTTTTCCCGGTAATCCGTATTTGCT (site CGATCATCTAG)	0
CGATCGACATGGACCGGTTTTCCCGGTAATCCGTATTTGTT (site TGATCGACTAA)	0.00749

The recorded recombinant UMI read abundance (log10) for entry GTAATCGCATGGACCGGTTTTCCCGGTAATCCGTATTTGCG (site GTAATCGCTCG) equals 1.95

====

So I've got a bunch of sequences here, and I need their recombinant barcode read abundance (log10) values.
test: recombinant barcode read abundance after kanamycin selection (control-corrected) (log10(CPM+1)); higher = more efficient recombination; sequences stand for … in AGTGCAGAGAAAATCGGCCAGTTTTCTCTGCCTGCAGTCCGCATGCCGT…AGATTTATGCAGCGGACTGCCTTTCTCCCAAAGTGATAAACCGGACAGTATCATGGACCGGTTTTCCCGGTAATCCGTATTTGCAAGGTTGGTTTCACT; site = the 11-nt target
One number for each entry.

item_sequence	measured_value
ACCACAGCTTGGGTTCTAACCTGTTGCCT (site ACCACAGCTAG)	0.283
GCACATTCTTGGGTTCTAACCTGTTGCCT (site GCACATACTAG)	0.0258
CCTGGGACTTGGGTTCTAACCTGTTGCGT (site CCTGGGACTTC)	0.0691
TAAGACGCTTGGGTTCTAACCTGTTGCCT (site TACGACGCTAG)	0.0565
AGGGATACTTGGGTTCTAACCTGTTGCTT (site AGGGAGACTAA)	0.303

Hey, can you go through the list below and give me recombinant barcode read abundance (log10) for every item?
1. CAGGCGTCTTGGGTTCTAACCTGTTGCCT (site CAGGCGTCTAG)
2. GGGGCTACTTGGGTTCTAACCTGTTGCCT (site GGGGCTACTGT)

Result:
1. 0.59
2. 0.183

Hey, can you go through the list below and give me recombinant barcode read abundance (log10) for every item?
1. CTCCCAACTTGGGTTCTAACCTGTTGCCT (site TTCCCTACTAG)
2. GCTAGTCCTTGGGTTCTAACCTGTTGCGT (site GCTAGTCCTCA)
3. CGGTAACCTTGGGTTCTAACCTGTTGCCT (site GGGTAACCTAG)
4. TACAGACCTTGGGTTCTAACCTGTTGCCT (site CACAGACCTAG)
5. CCGGAGCCTTGGGTTCTAACCTGTTGCCT (site CCGTAGCCTAG)
6. CACCGAGCTTGGGTTCTAACCTGTTGCCG (site CATCGAGCTCG)
7. TGCCCCGCTTGGGTTCTAACCTGTTGCCT (site TGCCCCGCTAG)
8. TGTTGTCCTTGGGTTCTAACCTGTTGCTG (site AACATAACTAC)

Result:
1. 0.446
2. 0.0737
3. 0.185
4. 0.197
5. 0.413
6. 0.145
7. 1.11
8. 0.141

Hey, can you go through the list below and give me recombinant barcode read abundance (log10) for every item?
1. TCCCGAGCTTGGGTTCTAACCTGTTGCCT (site TCCCGACCTAG)
2. TTATCCGCTTGGGTTCTAACCTGTTGCCT (site CGTAGACCTTA)
3. TCTAATTCTTGGGTTCTAACCTGTTGCAT (site TCTAATTCTAT)
4. GGCATCCCTTGGGTTCTAACCTGTTGCTA (site TTACAGGCTCG)
5. TACAGACCTTGGGTTCTAACCTGTTGCCT (site TACAGACCTAG)
6. GGTTCATCTTGGGTTCTAACCTGTTGCCA (site GGCTCCTCTTG)

Result:
1. 0
2. 0.0341
3. 0.0913
4. 0.205
5. 1.11
6. 0.0691

====

assay: recombinant barcode read abundance after kanamycin selection (control-corrected) (log10(CPM+1)); higher = more efficient recombination; sequences stand for … in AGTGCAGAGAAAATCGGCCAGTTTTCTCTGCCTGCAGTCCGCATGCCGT…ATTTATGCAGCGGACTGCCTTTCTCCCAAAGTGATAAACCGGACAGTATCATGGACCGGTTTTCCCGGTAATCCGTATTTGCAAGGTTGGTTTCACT; site = the 11-nt target
Outcome: y for recombinant barcode read abundance (log10) of at least 0.3; n for anything lower.

item_sequence	label_value
TAAGAATCATGGGTTCTAACCTGTTGCCTAG [TAAGAATCTAG_LTGcore_CA_RTGcore_CT] (site TAAGAATCTAG) (LTG core: CA, RTG core: CT)	y
TGTATTCGTTGGGTTCTAACCTGTTGCCTAG [TGTATTCCTAG_LTGcore_GT_RTGcore_CT] (site TGTATTCCTAG) (LTG core: GT, RTG core: CT)	n
ATGCTTTCTTGGGTTCTAACCTGTTGCCTCT [ATGCTTTCTAG_LTGcore_CT_RTGcore_AG] (site ATGCTTTCTAG) (LTG core: CT, RTG core: AG)	n

Task: Assess whether reported recombinant barcode read abundance (log10) for GGGAGCCTGTGGGTTCTAACCTGTTGCTGAG [GGGAGCCCTCA_LTGcore_TG_RTGcore_CT] (site GGGAGCCCTCA) (LTG core: TG, RTG core: CT) sits at 0.3 or higher.
Result: n

Task: Assess whether reported recombinant barcode read abundance (log10) for TTATAAACTTGGGTTCTAACCTGTTGCCTCA [TTATAAACTAG_LTGcore_CT_RTGcore_TG] (site TTATAAACTAG) (LTG core: CT, RTG core: TG) sits at 0.3 or higher.
Result: y
